experimental readout: melting point

Solved entries (count: 2):
>>> value_observed("CCOC(=O)COc1cc(C)nc2c(O)cccc12")
"97 to 98 °C"
>>> value_observed("NC(=O)N1C(=O)Cc2ccccc21")
"179 to 180 °C"

Incoming: Can you share its melting point? I mean this compound: `CC(C)(C)n1ncc(SCc2ccc(Cl)cc2)c(Cl)c1=O`
Outgoing: 142 to 143 °C

Incoming: Again, but for `CCN1C(=O)C(C)(C)C(=O)N(C)c2cc(OCCCN3C(=O)C4(OCCO4)c4ccccc43)ccc21`
Outgoing: 143 to 147 °C

---

experimental readout: melting point

Incoming: Recorded melting point of `CCCCc1ccc(OCCN2CCN(c3cc(Cl)nnc3Cl)CC2)cc1` , please.
Outgoing: 83 to 84 °C

Incoming: Also COC1=CC(=O)C2=C(C1=O)C1C=CC2C1 (centres undefined) ?
Outgoing: 117 to 118 °C

Incoming: // next record `N#Cc1c(N2CCN(C(=O)c3cccs3)CC2)c2cc(F)cnc2n(Cc2ccccc2)c1=O`
Outgoing: 173 °C

Incoming: What about this molecule? `CC(C)(c1ccccc1)n1nnc(-c2ccccc2-c2ccc(CBr)cc2)n1`
Outgoing: 108 to 109 °C

Incoming: What about this molecule? `Oc1ccc(Br)cc1-c1nc2ccccc2s1`
Outgoing: 164 to 165 °C

---

experimental readout: melting point

Incoming: Would you mind telling me what melting point value was observed for `CCOC(=O)c1c(C)nc2c(ncn2C)c1Cl` ?
Outgoing: 56 to 58 °C

Incoming: Let us now turn to `Fc1ccc2occ(N3CCN(C4CCN(c5ccc(F)c6cccnc56)CC4)CC3)c2c1`
Outgoing: 187 to 189 °C

Incoming: Consider next the molecule `CSc1ccc(-c2nn(Cc3cccnc3)c(=O)cc2-c2ccc(F)cc2)cc1` in the same way.
Outgoing: 160 to 161 °C

Incoming: Repeat with C=C1C(O)C(CO)OC1n1cc(CC)c(N)nc1=O (centres undefined)
Outgoing: 194 to 196 °C

Incoming: Could you do the same for CCc1nc(N)nc(N)c1CCC(C)c1ccc(C(F)(F)F)cc1 (centres undefined) , please?
Outgoing: 48 to 55 °C

Incoming: Same question, OC1C(COC2CC2)OC(n2cnc3c(NCc4cccc(I)c4)nc(Cl)nc32)C1O (centres undefined) this time
Outgoing: 94 to 96 °C

Incoming: How about this molecule: `CC(=O)Nc1ccc(O)c(C(=O)C=Cc2ccccc2)c1`
Outgoing: 162 to 165 °C

Incoming: Now give it for `N#CC(N)=C(C#N)N=Cc1cnn(-c2c(Cl)cc(OC(F)(F)F)cc2Cl)n1` too.
Outgoing: 199 to 201 °C

Incoming: Now try `CCn1c(C)nc2cc([N+](=O)[O-])c(Sc3cccc4cnccc34)cc21` .
Outgoing: 226 to 229 °C

Incoming: Repeat for the following molecule: `CCc1cc2c(-c3ccccc3Cl)c(NC(=O)C=Cc3cc(OC)c(OC(C)=O)c(OC)c3)cnc2s1`
Outgoing: 133 to 135 °C

Incoming: And CC(C(=O)O)c1ccc(-c2nc3ccccc3o2)cc1 (centres undefined) ?
Outgoing: 174 to 178 °C

Incoming: And the next one, COC(=O)CCC(=O)Oc1c(C)c(C)c2c(c1C)SC(C)O2 (centres undefined) ?
Outgoing: 73 to 75 °C

Incoming: What about `Cn1cc(-c2nn(-c3cccc(C(F)(F)F)c3)ccc2=O)c(-c2ccccc2)n1` ?
Outgoing: 181 to 183 °C

Incoming: And then O=C(O)[C@H](Cc1ccc(C(F)(F)F)o1)[C@@H](O)c1ccc(F)cc1 (racemic) , what is it?
Outgoing: 86 to 87 °C

Incoming: // repeat for N#CC(Cl)Cc1ccc(Cl)cc1C(=O)c1ccccc1 (centres undefined) and report
Outgoing: 69 to 71 °C

Incoming: Now consider `Cc1ccc(C)n1-c1ccc(C2(C#N)CCCC2)cc1` .
Outgoing: 117 to 120 °C

Incoming: Next up: `CCn1ncc(C(=S)c2ccc3c(c2C)/C(=N/OC)CCS3)c1O`
Outgoing: 92 to 97 °C

Incoming: Also need CCOCn1nccc1C(O)c1ccc(O)c(Cl)c1Cl (centres undefined) , thanks.
Outgoing: 150 °C

Incoming: Another molecule to look at: `O=C1COc2ccc(C#Cc3ccccn3)cc2N1`
Outgoing: 210 °C
